target: CYP11A1 (Homo sapiens, UniProt P05108); construct: human H295R adrenocortical carcinoma cell line was used as source of enzyme; endogenous in cells; test: CYP11A1 inhibition: modified isocaproic acid release assay (IARA) in H295R cells; conditions: human H295R adrenocortical carcinoma cells treated three days, 3 nM [24,25-3H]-labelled cholesterol, 1% DMSO, 10 concentrations in duplicates; read-out: IC50 of the test compounds on CYP11A1 inhibition
Sequence (P05108 40-521): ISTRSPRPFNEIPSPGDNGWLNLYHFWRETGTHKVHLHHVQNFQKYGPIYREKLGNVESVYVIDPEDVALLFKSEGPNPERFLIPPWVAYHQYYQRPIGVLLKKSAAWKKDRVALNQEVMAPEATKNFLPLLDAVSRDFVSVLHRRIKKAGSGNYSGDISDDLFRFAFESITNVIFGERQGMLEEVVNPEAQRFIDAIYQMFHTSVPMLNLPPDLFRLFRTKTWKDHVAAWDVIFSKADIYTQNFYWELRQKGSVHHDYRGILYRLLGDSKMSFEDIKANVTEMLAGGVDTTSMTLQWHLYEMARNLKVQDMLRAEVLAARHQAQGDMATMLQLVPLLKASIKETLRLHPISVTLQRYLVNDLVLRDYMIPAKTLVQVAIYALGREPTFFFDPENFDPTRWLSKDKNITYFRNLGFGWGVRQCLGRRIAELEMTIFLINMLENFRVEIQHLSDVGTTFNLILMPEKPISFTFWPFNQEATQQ
# Lookup of reported IC50 keyed by entry

# annotated cases, reported IC50 shown
CS(=N)(=O)c1ccc(COc2coc(CN3Cc4ccc(OC(F)(F)F)cc4C3)cc2=O)cc1 (stereo not shown) :: < 150 nM
CS(=O)(=O)CC(=O)N1CCC(COc2coc(CN3Cc4ccccc4C3)cc2=O)CC1 :: < 150 nM
O=C(c1ccc(COc2coc(CN3Cc4ccccc4C3)cc2=O)c(F)c1)N1CCC1 :: < 150 nM

# lookup: IC50 of "CN1Cc2cc(COc3coc(CN4Cc5ccccc5C4)cc3=O)ccc2C1=O" 301 to 2000 nM
